biological target: CYP3A4 (Homo sapiens)
Sequence (P08684 whole entry): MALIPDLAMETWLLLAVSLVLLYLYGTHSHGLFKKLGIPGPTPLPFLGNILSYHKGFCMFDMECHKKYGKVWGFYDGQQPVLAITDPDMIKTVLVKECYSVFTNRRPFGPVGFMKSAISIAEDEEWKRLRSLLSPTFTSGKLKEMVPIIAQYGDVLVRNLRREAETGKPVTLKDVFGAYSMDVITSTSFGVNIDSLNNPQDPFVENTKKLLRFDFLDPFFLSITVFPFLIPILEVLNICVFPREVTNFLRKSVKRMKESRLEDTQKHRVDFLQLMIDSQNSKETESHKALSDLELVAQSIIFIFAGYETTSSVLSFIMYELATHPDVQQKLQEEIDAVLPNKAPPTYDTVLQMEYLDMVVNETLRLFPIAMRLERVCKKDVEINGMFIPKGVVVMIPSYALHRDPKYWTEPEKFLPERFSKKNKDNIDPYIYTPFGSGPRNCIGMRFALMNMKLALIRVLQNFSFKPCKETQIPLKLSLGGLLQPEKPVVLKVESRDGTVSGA
Counter-ions that a name gives are not always drawn.
Parameter: log10 of AC50. Scope: all listed entries.
Value type: log10 of AC50 (log10 of the value in µM)

• O=C(Nc1ccc([N+](=O)[O-])cc1)Nc1ccc([N+](=O)[O-])cc1 [4,4'-Dinitrodiphenylurea] = 1.04
• O=C(O)c1cc(Br)c(O)c(Br)c1 [3,5-Dibromo-4-hydroxybenzoic acid] = 1.55
• CCCCCCCCS(=O)(=O)[O-].[Na+] [Sodium 1-octanesulfonate] = 1.52
• CCC(CC)Nc1ccc(C)c(C)c1 [N-(1-Ethylpropyl)-3,4-xylidine] = 0.16
• CCC(C)(C)C1CCC(O)CC1 (centres unmarked) [4-(2-Methylbutan-2-yl)cyclohexanol] = 0.98
• NC(=O)Nc1nc2ccccc2[nH]1 [2-Benzimidazolylurea] = 1.68
• CCOC(=O)CC(CC(=O)OCC)(OC(C)=O)C(=O)OCC [Acetyltriethyl citrate] = 1.64
• CCOC(=O)C(C#N)=C(c1ccccc1)c1ccccc1 [Ethyl 2-cyano-3,3-diphenylacrylate] = 0.86
• Nc1ccc(Cl)cc1C(=O)c1ccccc1F [2-Amino-5-chloro-2'-fluorobenzophenone] = 0.94
• CC(C)(C)c1ccc(C(=O)CCCCl)cc1 [4'-Tert-butyl-4-chlorobutyrophenone] = 1.34
• CCC(=O)Oc1ccc2c(c1)CC[C@@H]1[C@@H]2CC[C@@]2(C)[C@H]1C[C@@H](OC(=O)CC)[C@@H]2OC(=O)CC [Estriol tripropionate] = 0.69
• CC(C)(C)C(=O)C=Cc1ccc(Cl)cc1 = 1.30
• CCCCC(CC)C(=O)[O-].CCCCC(CC)C(=O)[O-].[Ba+2] (centres unmarked) [Barium bis(2-ethylhexanoate)] = 1.59
• CCCCN1C(=O)c2ccccc2C1=O [2-Butyl-1H-isoindole-1,3(2H)-dione] = 1.41
• CC(=O)OC1(c2ccccc2)CCN(CCc2ccccc2)CC1 = 1.61
• O=C(OCCCCCCOC(=O)c1ccccc1)c1ccccc1 [Hexane-1,6-diyl dibenzoate] = 1.38
• COC(=O)c1ccccc1C(=O)c1ccc(OCCN2CCCCC2)cc1.Cl [Pitofenone hydrochloride] = 1.19
• O=C(O)c1cc(C(=O)O)cc([N+](=O)[O-])c1 [5-Nitroisophthalic acid] = 0.75
• CC(C)(COC(=O)c1ccccc1)COC(=O)c1ccccc1 [Neopentyl glycol dibenzoate] = 1.55
• N.O=C(O)C(F)(F)C(F)(F)C(F)(F)C(F)(F)C(F)(F)C(F)(F)C(F)(F)F [PFOA, ammonium salt] = 1.89
• O=C(O)C[C@H](NC(=O)OCc1ccccc1)C(=O)O [N-[(Benzyloxy)carbonyl]-L-aspartic acid] = 1.55
• COc1ccc(C(=O)c2ccc(O)cc2)c(OC)c1 [2,4-Dimethoxy-4'-hydroxy benzophenone] = 1.50
• CC(C)(C)C1=CC(=O)C(C(C)(C)C)=CC1=O = 0.81
• O=C(CCC1CCN(Cc2ccccc2)CC1)c1ccc2c(c1)NCCCC2.O=C(O)/C=C/C(=O)O [Zanapezil fumerate] = 0.53
• Cl.ClCCCN1CCN(c2cccc(Cl)c2)CC1 = 1.19
• C[As+](C)(C)CC(=O)[O-] [Arsenobetaine] = 1.68
